Exercise: for every item that follows, state its recorded CC50.
# System: OVCAR-5
# MEASUREMENT CONDITIONS: read-out: 50% lethal concentration (LC50); OVCAR-5, Ovarian
Record the value in µM, omitting the unit from your answer.

QUERY: Which CC50 reading was recorded for the compound C=C1CCC2C3(C)COC(c4cn(-c5ccccc5)nc4-c4cccc(F)c4)OC3CCC2(C)C1CC=C1C(=O)OCC1O (centres unmarked) [1c] ?
RESULT: 31

QUERY: Which CC50 reading was recorded for the compound C=C1CCC2C3(C)COC(c4cn(-c5ccccc5)nc4-c4ccc(F)cc4)OC3CCC2(C)C1CC=C1C(=O)OCC1O (centres unmarked) [1f] ?
RESULT: 8.66

QUERY: Which CC50 reading was recorded for the compound C=C1CCC2C3(C)COC(c4cn(-c5ccccc5)nc4-c4cccc(Cl)c4)OC3CCC2(C)C1CC=C1C(=O)OCC1O (centres unmarked) [1d] ?
RESULT: 7.73
